target: HDAC; assay: Assay of enzyme inhibition of HDAC (BIOMOL kit, fluorescence); settings: nuclear fraction of Hela cells; substrate 200 µM; 15 min at RT
Measured IC50 of individual entries

Example cases with answers are listed next.
| Compound | Measured Quantity | Reported Value |
| --- | --- | --- |
| O=C(/C=C/c1ccc2c(c1)C(=O)CC1(CCCN(Cc3ccc(F)cc3)CC1)O2)NO (racemic) [Example 29] | IC50 | 100 to 1000 nM |
| O=C(/C=C/c1ccc2c(c1)C(=O)CC1(CCCN(Cc3ccccc3)CC1)O2)NO (racemic) [Example 23] | IC50 | ≤ 100 nM |
| Cc1cc(/C=C/C(=O)NO)cc2c1OC1(CCN(Cc3ccccc3)CC1)CC2=O [Example 52] | IC50 | 100 to 1000 nM |
| O=C(/C=C/c1cc(F)c2c(c1)C(=O)CC1(CCN(Cc3ccccc3)CC1)O2)NO [Example 51] | IC50 | 100 to 1000 nM |
| O=C(/C=C/c1ccc2c(c1)C(=O)CC1(CCCN(Cc3ccc(F)cc3)C1)O2)NO (racemic) [Example 19] | IC50 | ≤ 100 nM |

Report IC50 for O=C(/C=C/c1ccc2c(c1)C(=O)CC1(CCNC1)O2)NO (racemic) [Example 1] please.
100 to 1000 nM

Report IC50 for Cn1cc(CN2CCC3(CC(=O)c4cc(/C=C/C(=O)NO)ccc4O3)C2)c2ccccc21 (racemic) [Example 10] please.
≤ 100 nM

Report IC50 for O=C(/C=C/c1ccc2c(c1)C(=O)CC1(CN(Cc3ccccc3)C1)O2)NO [Example 31] please.
≤ 100 nM
